- System: HT29 colon
- EXPERIMENT_NOTES: NCI-60 one-dose screen, 48 h
- PROTOCOL_CONDITIONS: 10 µM unless noted
This is part of a sample that, as a whole, favours compounds with a hit. Of some 83,000 tested, about 20% had one in any assay. Active and inactive are the calls of the source. Rule for the calls: active = growth percent below 10; inactive = the rest.
Allowed answers: 1 (yes) for active, 0 (no) for inactive

{"columns": ["MOLECULE", "CLASS_LABEL"],
 "data": [
  ["Oc1cccc(CCc2ccc(Oc3cc(CCc4cccc(O)c4)cc(O)c3O)cc2)c1", "0 (no)"],
  ["CN(C)c1ccc(Nc2c3ccccc3nc3cc(NC(=O)CCN4CCCC4)ccc23)cc1", "1 (yes)"],
  ["COc1cc(-c2cc(-c3ccc(N(C)C)cc3)nc(N3CCOCC3)c2C#N)cc(OC)c1OC", "0 (no)"],
  ["O=C(c1nc2ccccc2[nH]1)C1C(c2ccc(Cl)cc2)C2CC3CCCC[C@H]3N2[C@@]12C(=O)Nc1cc(Cl)ccc12 (stereo partly drawn)", "0 (no)"],
  ["O=C(Nc1ccccc1)Nc1ccc2cc3ccc(NC(=O)Nc4ccccc4)cc3nc2c1", "1 (yes)"]
]}

Q: What classification did COc1ccc2c(c1)oc1c(C)c3c(c(C)c12)C(=O)N(N)C3=O end up with in this test?
Result: 1 (yes)

Q: Then CCCOC(=O)N[C@H]1CCc2c(Cl)c(OC)c(OC)c(OC)c2-c2ccc(SC)c(=O)cc21 ?
Result: 0 (no)

Q: Then O=[N+]([O-])CC(c1ccccc1)c1c[nH]c2ccccc12 (stereo not drawn) ?
Result: 0 (no)

Q: Then Nc1c(C(=O)Nc2ccnc3ccccc23)sc2nc3c(cc12)CN(Cc1ccccc1)CC3 ?
Result: 0 (no)

Q: Then Brc1ccc2[nH]cc(-c3cncn3CCc3ccccc3)c2c1 ?
Result: 0 (no)
